Could you please report measured abundance fitness for the items listed next?
B1: Histone-lysine N-methyltransferase SETD2, residues 2382 to 2430; numbered along this chain, Q9BYW2 (parent)
chain: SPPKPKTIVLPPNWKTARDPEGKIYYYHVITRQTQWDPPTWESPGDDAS

variants of: B1; test: abundance fitness (aPCA) (normalised: wild type 0, dead -1); higher = more abundant; growth selection in yeast, the domain comes from the species named; conditions: Homo sapiens
Please reply with the number alone, leaving off any unit.

Can you share its abundance fitness? I mean this variant: "W36C"
-0.08

"D47M" , same question.
-0.226

"P5R" , same question.
-0.006

"S1Y" , same question.
-0.521

"T34A" , same question.
-0.296

"P38L" , same question.
-0.396

These measurements were taken from the Human Domainome abundance scans (Beltran et al. 2025).
